Experimental Target: CDK2 CCNA2 (human) (UniProt P20248+P24941)
Experimental Protocol: radiometric filter-binding kinase assay
Conditions Used: compound 0.1 µM
Property Measured: residual activity
Could you give the number and then its unit, please?

1) CCn1c(-c2nonc2N)nc2cncc(CNC3CCNCC3)c21: 83%

Here O=C(NCCCNc1nc(Nc2cccc(CN3CCOCC3)c2)ncc1C1CC1)C1CCC1 was tested on CDK2 CCNA2 (human) (UniProt P20248+P24941), and its residual activity came to 86%

Here COc1ccc(N(C(=O)Nc2c(C)cccc2C)c2cc(Nc3ccc(N4CCN(C)CC4)cc3)ncn2)c(OC)c1 was tested on CDK2 CCNA2 (human) (UniProt P20248+P24941), and its residual activity came to 121%

Here CNC(=O)C1[C@H]2O[C@@](C)([C@@H]1N)n1c3ccccc3c3c4c(c5c6ccccc6n2c5c31)C(=O)NC4 (stereo partly specified) was tested on CDK2 CCNA2 (human) (UniProt P20248+P24941), and its residual activity came to 9%

Here O=C(Nc1ccccc1-c1cn2c(CN3CCNCC3)csc2n1)c1cnc2ccccc2n1 was tested on CDK2 CCNA2 (human) (UniProt P20248+P24941), and its residual activity came to 88%

Here NC(=O)c1cc(-c2ccnc(NC3CCCCC3)c2)nc(N2CCNCC2)c1 was tested on CDK2 CCNA2 (human) (UniProt P20248+P24941), and its residual activity came to 66%

Here CCCCCc1ccc(/C=C/[C@H](O)[C@@H](CO)NC)cc1 was tested on CDK2 CCNA2 (human) (UniProt P20248+P24941), and its residual activity came to 98%

Here COc1cc(O)c2c(c1)[C@H]1OC1C[C@H](O)[C@H](O)C(=O)/C=C\C[C@H](C)OC2=O (stereo partly specified) was tested on CDK2 CCNA2 (human) (UniProt P20248+P24941), and its residual activity came to 81%

Here NC1(c2ccc(-c3nc4ccn5c(=O)[nH]nc5c4cc3-c3ccccc3)cc2)CCC1 was tested on CDK2 CCNA2 (human) (UniProt P20248+P24941), and its residual activity came to 100%

Here COc1ccc2c(c1)c1c3c(c4c5ccccc5n(C)c4c1n2CC(O)CN(C)C)C(=O)NC3=O (stereo unspecified) was tested on CDK2 CCNA2 (human) (UniProt P20248+P24941), and its residual activity came to 95%

Here O=C(Nc1nc2cc(C(F)(F)F)cc(NC3CC3)n2n1)c1cccnc1 was tested on CDK2 CCNA2 (human) (UniProt P20248+P24941), and its residual activity came to 98%

Here NC(=O)c1cc2c(-c3cccc(-c4ccccc4)c3)cnc(N)c2s1 was tested on CDK2 CCNA2 (human) (UniProt P20248+P24941), and its residual activity came to 97%

Here CN1CCN(CCOc2cc(OC3CCOCC3)c3c(Nc4c(Cl)ccc5c4OCO5)ncnc3c2)CC1 was tested on CDK2 CCNA2 (human) (UniProt P20248+P24941), and its residual activity came to 96%

Here CC1=C(CO)C(=O)O[C@@H]([C@@H](C)[C@H]2CC[C@H]3[C@@H]4C[C@H]5O[C@]56[C@@H](O)C=CC(=O)[C@]6(C)C4CC[C@]23C)C1 (stereo partly specified) was tested on CDK2 CCNA2 (human) (UniProt P20248+P24941), and its residual activity came to 108%

Here O=C(O)c1ccc(-c2c[nH]c3ncc(-c4ccccc4)cc23)cc1C1CCCC1 was tested on CDK2 CCNA2 (human) (UniProt P20248+P24941), and its residual activity came to 106%

Here C=CC(=O)N1CCC[C@@H](n2nc(-c3ccc(Oc4ccccc4)cc3)c3c(N)ncnc32)C1 was tested on CDK2 CCNA2 (human) (UniProt P20248+P24941), and its residual activity came to 89%

###

Experimental Target: CHEK2 (human) (UniProt O96017)
Sequence (O96017 whole entry, looked up): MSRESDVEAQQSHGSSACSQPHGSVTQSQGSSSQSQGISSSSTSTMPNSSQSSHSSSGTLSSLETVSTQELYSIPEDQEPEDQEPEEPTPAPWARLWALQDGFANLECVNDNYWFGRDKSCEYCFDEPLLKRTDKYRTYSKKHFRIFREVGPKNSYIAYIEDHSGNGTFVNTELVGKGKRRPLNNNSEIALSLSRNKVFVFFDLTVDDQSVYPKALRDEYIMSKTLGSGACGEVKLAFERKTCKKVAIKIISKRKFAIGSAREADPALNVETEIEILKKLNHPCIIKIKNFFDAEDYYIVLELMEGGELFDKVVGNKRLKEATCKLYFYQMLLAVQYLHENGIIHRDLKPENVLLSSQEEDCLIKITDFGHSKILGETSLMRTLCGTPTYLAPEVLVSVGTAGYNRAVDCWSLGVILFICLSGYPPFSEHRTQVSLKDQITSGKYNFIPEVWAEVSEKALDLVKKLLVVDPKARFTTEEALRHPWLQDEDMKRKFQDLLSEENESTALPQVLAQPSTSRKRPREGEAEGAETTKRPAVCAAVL
Experimental Protocol: radiometric filter-binding kinase assay
Conditions Used: compound 0.1 µM
Here the recorded residual activity is given for each entry.
# output: bare number, implied unit %

1) CCn1c(-c2nonc2N)nc2cncc(CNC3CCNCC3)c21: 94

Here COc1cc(O)c2c(c1)[C@H]1OC1C[C@H](O)[C@H](O)C(=O)/C=C\C[C@H](C)OC2=O (stereo partly drawn) was tested on CHEK2 (human) (UniProt O96017), and its residual activity came to 91

Here O=C(N[C@@H](COc1ccc2[nH]c(=O)[nH]c2c1)c1ccccc1)c1cccn(Cc2ccc(F)c(F)c2)c1=O was tested on CHEK2 (human) (UniProt O96017), and its residual activity came to 102

###

Experimental Target: MAP2K1 (human) (UniProt Q02750)
Sequence (Q02750 whole entry, looked up): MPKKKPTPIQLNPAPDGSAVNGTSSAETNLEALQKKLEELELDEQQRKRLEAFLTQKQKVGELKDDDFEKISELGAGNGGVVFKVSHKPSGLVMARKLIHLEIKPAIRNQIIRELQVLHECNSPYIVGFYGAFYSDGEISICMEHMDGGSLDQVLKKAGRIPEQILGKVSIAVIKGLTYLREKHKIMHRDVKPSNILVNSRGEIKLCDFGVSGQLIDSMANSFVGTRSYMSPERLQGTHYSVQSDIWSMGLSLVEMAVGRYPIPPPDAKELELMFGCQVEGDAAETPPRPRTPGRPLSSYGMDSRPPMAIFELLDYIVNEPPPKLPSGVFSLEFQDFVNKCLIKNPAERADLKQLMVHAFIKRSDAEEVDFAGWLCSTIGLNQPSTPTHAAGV
Experimental Protocol: radiometric filter-binding kinase assay
Conditions Used: compound 1.0 µM
Property Measured: residual activity (%)
# output: bare number, implied unit %

1) CCc1cncnc1N1CCN(Cc2nc3cc(C(F)(F)F)ccc3[nH]2)CC1: 104
2) COc1cc2ncn(-c3cc(OCc4ccccc4S(C)(=O)=O)c(C#N)s3)c2cc1OC: 78
3) O=C(NCCCNc1nc(Nc2cccc(CN3CCOCC3)c2)ncc1C1CC1)C1CCC1: 84
4) C=C1C(=O)OC2C1CC/C(C)=C/CCC1(C)OC21 (stereo unspecified): 96
5) O=C1Nc2nc(-c3c(O)cccc3OCC3CC3)cc(C3CCCNC3)c2CO1 (stereo unspecified): 79

Briefly, residual activity measured for Cn1nc(Nc2ccc(F)cc2)c2c(N)ncnc21 : 108

Briefly, residual activity measured for COc1cc(C(=O)N2CCOCC2)c(F)cc1Nc1ncc(C(F)(F)F)c(NC2CC2)n1 : 95

Briefly, residual activity measured for NC(=O)c1ccc(-c2ccc(Oc3cncc4sc(-c5nn[nH]n5)cc34)cc2)cc1 : 85

Briefly, residual activity measured for O=C(Nc1ccccc1-c1cn2c(CN3CCNCC3)csc2n1)c1cnc2ccccc2n1 : 95

Briefly, residual activity measured for C=CC(=O)N1CCC[C@@H](n2nc(-c3ccc(Oc4ccccc4)cc3)c3c(N)ncnc32)C1 : 76

###

Experimental Target: ABL1 (human) (UniProt P00519)
Sequence (P00519 whole entry, looked up): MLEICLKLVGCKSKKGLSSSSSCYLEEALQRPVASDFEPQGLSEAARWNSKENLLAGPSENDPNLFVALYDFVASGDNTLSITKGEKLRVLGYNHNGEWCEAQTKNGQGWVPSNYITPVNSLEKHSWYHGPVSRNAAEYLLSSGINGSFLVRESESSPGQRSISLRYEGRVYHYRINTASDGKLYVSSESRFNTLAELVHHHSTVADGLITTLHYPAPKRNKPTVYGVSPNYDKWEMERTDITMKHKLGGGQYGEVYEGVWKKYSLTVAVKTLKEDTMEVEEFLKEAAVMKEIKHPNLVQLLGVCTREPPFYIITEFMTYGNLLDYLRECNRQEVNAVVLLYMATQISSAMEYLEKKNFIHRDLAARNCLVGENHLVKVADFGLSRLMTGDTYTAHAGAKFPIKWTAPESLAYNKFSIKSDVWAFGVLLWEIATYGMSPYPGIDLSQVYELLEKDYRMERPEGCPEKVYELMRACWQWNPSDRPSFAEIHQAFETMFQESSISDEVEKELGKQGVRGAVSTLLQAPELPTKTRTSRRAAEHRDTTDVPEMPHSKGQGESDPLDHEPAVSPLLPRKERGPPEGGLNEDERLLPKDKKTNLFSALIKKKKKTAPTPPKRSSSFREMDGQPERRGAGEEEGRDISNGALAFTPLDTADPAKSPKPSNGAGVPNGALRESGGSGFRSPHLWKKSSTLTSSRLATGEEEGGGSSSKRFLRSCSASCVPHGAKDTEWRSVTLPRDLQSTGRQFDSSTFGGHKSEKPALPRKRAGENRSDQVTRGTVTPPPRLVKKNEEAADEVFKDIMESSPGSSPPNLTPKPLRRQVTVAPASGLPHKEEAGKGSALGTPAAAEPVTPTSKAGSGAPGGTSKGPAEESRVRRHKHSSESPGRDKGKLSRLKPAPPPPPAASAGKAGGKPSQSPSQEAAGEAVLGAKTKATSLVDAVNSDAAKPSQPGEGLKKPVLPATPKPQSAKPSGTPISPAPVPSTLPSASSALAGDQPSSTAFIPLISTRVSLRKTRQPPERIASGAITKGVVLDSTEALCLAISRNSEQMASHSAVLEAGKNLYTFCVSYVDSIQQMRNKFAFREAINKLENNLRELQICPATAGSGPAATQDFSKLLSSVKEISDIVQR
Experimental Protocol: radiometric filter-binding kinase assay
Conditions Used: compound 0.1 µM
Here the recorded residual activity is given for each entry.
# output: bare number, implied unit %

The cases that follow already have their residual activity on record.
1) COc1ccc(-n2ncc3cnc(Nc4cc(OC)c(OC)c(OCCCN5CCN(C)CC5)c4)nc32)cc1: 31
2) Cc1cc(NC(=O)c2cccc(NC(=O)/C=C/CN(C)C)c2)ccc1Nc1nccc(-c2cccnc2)n1: 97
3) COc1cc(O)c2c(c1)/C=C/C[C@H](O)[C@H](O)C(=O)/C=C\C[C@H](C)OC2=O: 108

Briefly, residual activity measured for NC(=O)c1cc(-c2ccnc(NC3CCCCC3)c2)nc(N2CCNCC2)c1 : 102

Briefly, residual activity measured for COc1cc(O)c2c(c1)[C@H]1OC1C[C@H](O)[C@H](O)C(=O)/C=C\C[C@H](C)OC2=O (stereo not given in full) : 97

###

Here the recorded residual activity is given for each entry.
Experimental Target: PRKCA (human) (UniProt P17252)
Experimental Protocol: radiometric filter-binding kinase assay
Conditions Used: compound 1.0 µM
# output: bare number, implied unit %

The cases that follow already have their residual activity on record.
1. C=C1C(=O)OC2C1CC/C(C)=C/CCC1(C)OC21 (centres undefined): 108
2. O=C1Nc2nc(-c3c(O)cccc3OCC3CC3)cc(C3CCCNC3)c2CO1 (centres undefined): 77
3. NCC(=O)Nc1ccc(-n2nc(C(F)(F)F)cc2-c2ccc3c(ccc4ccccc43)c2)cc1: 94
4. Cn1nc(Nc2ccc(F)cc2)c2c(N)ncnc21: 120
5. CC(C)(C#N)c1ccc(N2C(=O)OCc3cnc4ccc(-c5cnc6ccccc6c5)cc4c32)cc1: 101

Here CCCCCc1ccc(/C=C/[C@H](O)[C@@H](CO)NC)cc1 was tested on PRKCA (human) (UniProt P17252), and its residual activity came to 88

Here O=C(Nc1ccccc1-c1cn2c(CN3CCNCC3)csc2n1)c1cnc2ccccc2n1 was tested on PRKCA (human) (UniProt P17252), and its residual activity came to 106

Here Oc1ccc2ccccc2c1SSc1c(O)ccc2ccccc12 was tested on PRKCA (human) (UniProt P17252), and its residual activity came to 91

Here Cc1cc(SCc2sc(-c3ccc(C(F)(F)F)cc3)nc2C)ccc1OCC(=O)O was tested on PRKCA (human) (UniProt P17252), and its residual activity came to 96

Here FC(F)(F)c1ccc(-c2ccc(Oc3cncc4sc(-c5nn[nH]n5)cc34)cc2)cc1 was tested on PRKCA (human) (UniProt P17252), and its residual activity came to 107

Here COc1cc(O)c2c(c1)[C@H]1OC1C[C@H](O)[C@H](O)C(=O)/C=C\C[C@H](C)OC2=O (some centres undefined) was tested on PRKCA (human) (UniProt P17252), and its residual activity came to 92

Here Oc1ccc(/C=C/c2cc(O)cc(O)c2)cc1 was tested on PRKCA (human) (UniProt P17252), and its residual activity came to 96

Here NC(=O)c1cc(-c2ccnc(NC3CCCCC3)c2)nc(N2CCNCC2)c1 was tested on PRKCA (human) (UniProt P17252), and its residual activity came to 95

Here CCCC(CCC)C(=O)O was tested on PRKCA (human) (UniProt P17252), and its residual activity came to 88
